Where these numbers come from: ChEMBL document CHEMBL1152672

molecular target: Sterol 24-C-methyltransferase (Yarrowia lipolytica) (UniProt Q6C2D9); experiment: Inhibition of Yarrowia lipolytica 24-SMT assessed as 5-dehydroepisterol-3-trimethylsilyl derivative at 2 ug/mL after 48 hrs by GC-MS analysis relative to untreated control; design: scale not given: the % may be the effect or the level left
Sequence (Q6C2D9 whole entry): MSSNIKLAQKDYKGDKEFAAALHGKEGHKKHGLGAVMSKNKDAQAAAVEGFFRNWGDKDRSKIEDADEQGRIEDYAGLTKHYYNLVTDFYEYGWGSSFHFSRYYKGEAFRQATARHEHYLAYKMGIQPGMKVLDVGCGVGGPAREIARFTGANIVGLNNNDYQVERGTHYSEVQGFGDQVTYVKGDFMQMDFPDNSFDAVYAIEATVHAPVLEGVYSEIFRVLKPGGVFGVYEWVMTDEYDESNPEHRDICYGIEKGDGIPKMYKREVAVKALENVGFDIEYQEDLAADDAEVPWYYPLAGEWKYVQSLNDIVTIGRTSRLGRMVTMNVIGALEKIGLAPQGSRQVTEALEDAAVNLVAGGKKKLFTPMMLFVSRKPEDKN
OBSERVED_PROPERTY: Activity (%)

- CNC[C@@H](C)[C@H]1CC[C@H]2C3=CC[C@H]4C[C@@H](O)CC[C@]4(C)[C@H]3CC[C@]12C: 2.6
- C[C@H](CNCCCN(C)C)[C@H]1CC[C@H]2C3=CC[C@H]4C[C@@H](O)CC[C@]4(C)[C@H]3CC[C@]12C: 3.3
- CCCC[S+](C)C[C@@H](C)[C@H]1CC[C@H]2C3=CC[C@H]4C[C@@H](O)CC[C@]4(C)[C@H]3CC[C@]12C.[I-] (mixture of isomers): 1
- C[C@H](CNCCN1CCCC1)[C@H]1CC[C@H]2C3=CC[C@H]4C[C@@H](O)CC[C@]4(C)[C@H]3CC[C@]12C: 3.6

* * *

Recorded Activity, one value per entry.
molecular target: UniProtKB Q6C2D9; assay: Inhibition of Yarrowia lipolytica 24-SMT assessed as cholesta-5,7,24-trien-3-trimethylsilyl derivative at 0.06 ug/mL after 48 hrs by GC-MS analysis relative to untreated control; design: scale not given: the % may be the effect or the level left
OBSERVED_PROPERTY: Activity

- C[C@H](/C=C/c1cc[n+](C)cc1)[C@H]1CCC2C3=CCC4C[C@@H](O)CC[C@]4(C)C3CC[C@@]21C.[I-] (stereo not given in full): 18.3%
- CCCCNC[C@@H](C)[C@H]1CC[C@H]2C3=CC[C@H]4C[C@@H](O)CC[C@]4(C)[C@H]3CC[C@]12C: 47.9%
- C[C@H](/C=C/c1cccc[n+]1C)[C@H]1CC[C@H]2C3=CCC4C[C@@H](O)CC[C@]4(C)[C@H]3CC[C@]12C.[I-] (stereo not given in full): 2.2%
- CCCNCC[C@@H](C)[C@H]1CC[C@H]2C3=CC[C@H]4C[C@@H](O)CC[C@]4(C)[C@H]3CC[C@]12C: 60.8%
- CCCCCNC[C@@H](C)[C@H]1CC[C@H]2C3=CC[C@H]4C[C@@H](O)CC[C@]4(C)[C@H]3CC[C@]12C: 20.4%

* * *

target: Sterol 24-C-methyltransferase (Yarrowia lipolytica); experiment: Inhibition of Yarrowia lipolytica 24-SMT assessed as cholesta-5,7,24-trien-3-trimethylsilyl derivative at 0.2 ug/mL after 48 hrs by GC-MS analysis relative to untreated control; design: scale not given: the % may be the effect or the level left
OBSERVED_PROPERTY: Activity (%)

• CCCCN(C)C[C@@H](C)[C@H]1CC[C@H]2C3=CC[C@H]4C[C@@H](O)CC[C@]4(C)[C@H]3CC[C@]12C = 48.2
• CC(C)C(C)NC[C@@H](C)[C@H]1CC[C@H]2C3=CC[C@H]4C[C@@H](O)CC[C@]4(C)[C@H]3CC[C@]12C (mixture of isomers) = 18
• C[C@H](/C=C/c1cccc[n+]1C)[C@H]1CC[C@H]2C3=CCC4C[C@@H](O)CC[C@]4(C)[C@H]3CC[C@]12C.[I-] (some centres undefined) = 83.4
• CCNC[C@@H](C)[C@H]1CC[C@H]2C3=CC[C@H]4C[C@@H](O)CC[C@]4(C)[C@H]3CC[C@]12C = 25.5
